Data origin, for the record: PubChem BioAssay

# method_summary: HepG2 cytotoxicity, primary screen, cytotoxicity control for P. falciparum antimalarial project, cell-based, ATP luminescence (AID 2303);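 note: 0% = DMSO wells and 100% = digitonin-killed cells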
# measurement_context: HepG2 viability, 24-48 h, at 10 µM, active compounds read high
Threshold 20%: inhibition strictly smaller gives true (1), otherwise false (0).

Study these solved cases before continuing.
compound: CC(C)C(=O)n1ncc2c3c(N)nc(N)nc3ccc21
assigned_class: true (1)
--
compound: O=C(/C=C/c1ccc(Cl)c(Cl)c1)NCCCCCN1CCC(C(=O)Nc2cccc(Cl)c2)CC1
assigned_class: false (0)
--
compound: COc1ccc(NC(=O)Nc2ccc(-c3cccc(-c4nc5c(C)cccc5[nH]4)c3)cc2)cc1
assigned_class: false (0)
--
compound: CC(C)NCc1cccc(-c2cccc(NC(=O)c3cccc(Cl)c3)c2)c1
assigned_class: false (0)
--
compound: CC(C)CCN1C(=O)C(NC(=O)Oc2ccccc2)C(=O)N(CC23CC4CC(CC(C4)C2)C3)c2ccccc21 (centres undefined)
assigned_class: true (1)
--
compound: CN(C)CCNCc1cccc(-c2ccc3c(Nc4ccc(Oc5ccccc5)cc4)ccnc3c2)c1
assigned_class: false (0)
--
compound: Cc1ccccc1C1CCN(c2ccc(NC(=O)c3ccc(Cl)nc3)cc2)CC1
assigned_class: false (0)
--
compound: NC1=NC(C=Cc2ccccc2)N(OCCCCCCON2C(N)=NC(N)=NC2C=Cc2ccccc2)C(N)=N1 (centres undefined)
assigned_class: true (1)
--
compound: CN(C)CCOc1ccc2c(=O)cc(CCc3cccc(F)c3F)n(CC(=O)N(C)Cc3ccc(-c4ccc(C(F)(F)F)cc4)cc3)c2c1
assigned_class: false (0)
--
compound: Cc1[nH]c(C)c(-c2cccc(-c3ccc(OC(F)(F)F)cc3)c2)c(=O)c1Br
assigned_class: false (0)

Is 20% strictly greater than the compound's reported inhibition? compound: COc1cc(Nc2nccc(N3CCC(NC(=O)Nc4ccc5c(c4)OCO5)C3)n2)cc(OC)c1OC (centres undefined)
true (1)

Try this compound too: `CN1CCN(CCCN(Cc2ccc(-c3ccc(CNCCc4ccccc4)cc3)cc2)C(=O)c2cccs2)CC1`
false (0)

Also check `COc1ccc(NC(=O)CSc2nc(-c3ccccc3Cl)ns2)cc1OC`
true (1)

And then `Cc1ccc(NC(=O)c2ccc(-c3cc4cc(Cl)c(Cl)cc4[nH]3)cc2)cc1OCCN1CCCC1` , what is it?
true (1)

Quick one: `O=C(Nc1cccc(F)c1)c1ccc(C(=O)NC2CCN(CC3CCCCC3)CC2)cc1`
false (0)

Cool, now `O=S1(=O)C=C(c2ccccc2)CC1`
false (0)

Try this compound too: `O=C(Cn1c(CCc2cccc(F)c2F)nc(=O)c2ccccc21)N(CCN1CCCCC1)Cc1ccc(-c2ccc(C(F)(F)F)cc2)cc1`
false (0)

// same read-out, input: `CSc1ccc(C=CC(=O)NC(=O)c2ccccc2O)cc1`
true (1)

---

# target_or_test_system: L-lactate dehydrogenase (Plasmodium falciparum (isolate CDC / Honduras)) (UniProt Q27743)
# Sequence (Q27743 whole entry, looked up): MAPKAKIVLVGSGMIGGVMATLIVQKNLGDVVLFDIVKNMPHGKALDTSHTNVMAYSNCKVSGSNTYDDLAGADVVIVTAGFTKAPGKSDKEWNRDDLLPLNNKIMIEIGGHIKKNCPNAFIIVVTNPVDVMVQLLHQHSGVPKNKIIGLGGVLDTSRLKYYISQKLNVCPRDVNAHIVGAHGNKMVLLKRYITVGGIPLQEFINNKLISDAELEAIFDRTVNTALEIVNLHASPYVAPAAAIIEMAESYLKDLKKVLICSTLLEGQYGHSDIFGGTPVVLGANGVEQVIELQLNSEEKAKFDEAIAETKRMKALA
# method_summary: PfLDH activity inhibition – cell lysate, 3D7 strain, counter-screen for P. falciparum growth inhibition project (AID 2304);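 note: 0% = vehicle and 100% = reference inhibitor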
# measurement_context: P. falciparum 3D7 crude extract, LDH APAD/NBT absorbance; at 2 µM; active compounds read high
Exercise: for every item that follows, state its recorded inhibition.
Answers are plain numbers, in %.

compound: COc1ccc(COc2c(OC)cc(Cc3cnc(N)nc3N)cc2OC)cc1
unit_of_measurement: %
readout_value: 1

compound: O=C(NCCN1CCCC1)c1cccc(-c2ccc(-c3nc4ccc(F)cc4[nH]3)cc2)c1
unit_of_measurement: %
readout_value: -3

Would you mind listing inhibition for each of the following compounds?
1. Cc1cc(NN=Cc2ccccc2[N+](=O)[O-])c2ccccc2n1
2. CC1CN(Cc2ccc(-c3cccc(-c4nc5ccc(F)cc5[nH]4)c3)cc2)CC(C)O1 (centres undefined)
3. CN(C)S(=O)(=O)c1ccc(N2CCN(CCC3(c4cccc(F)c4)CCN(C(=O)C(C)(C)C)CC3)CC2)c2nonc12
4. CN(CCCCNC(=O)c1ccc(-c2ccccc2)cc1)C1CCc2c(O)cccc2C1 (centres undefined)
5. c1cc(CN2CCCCC2)cc(-c2ccc(-c3nc4ccccc4[nH]3)cc2)c1
6. CCOC(=O)c1c[nH]c2c(sc3cc(OC)ccc32)c1=O
7. COc1cccc(-c2nn(C)c3sc(C(=O)NCCN4CCN(c5ccccc5F)CC4)cc23)c1

1: -2; 2: -3; 3: -1; 4: 0; 5: -2; 6: 3; 7: -5

Please give inhibition for each item listed below.
1. COc1cccc(OC)c1CN1CCC(N(C)CCCCCCCCN2CCC(OC(=O)Nc3ccccc3-c3ccccc3)CC2)CC1
2. COc1ccccc1-c1ccc(CNC(=O)C(CN2CCN(C)CC2)c2ccccc2)cc1 (centres undefined)
3. CC(C)C[C@H](NC(=O)c1cc2cc(OCCN3CCNCC3)ccc2o1)C(=O)NC1CC[C@@H](C)N(C(=O)Nc2ccc(Cl)cc2)CC1=O (some centres undefined)
4. Cc1cc(OCCCN2CCCCC2)ccc1NC(=O)COc1ccc(Cl)cc1C(=O)c1cc(C#N)cc(C(F)(F)F)c1

[1, 2, 6, -5]

I'm hoping you can list inhibition for every compound here, please.
1. Cc1cccc(-c2nn(-c3ccccc3)cc2C(=O)Nc2nnc(C)o2)c1
2. CCOc1cc(Br)c(C(C)NC(=O)c2ccccc2)cc1OCC (centres undefined)
3. Cc1cc(NC(=O)NCCN2CCC(NC(=O)c3cccc(Br)c3)C2)c2ccccc2n1 (centres undefined)
4. Cc1cc(NC(=O)NCCN2CCC(NS(=O)(=O)c3ccc(C(F)(F)F)cc3)C2)c2ccccc2n1 (centres undefined)
5. COCCOc1ccc(Nc2nccc(-c3c(-c4cccc(NC(=O)c5c(F)cccc5F)c4)nn4ccccc34)n2)cc1F

1: 4; 2: 5; 3: -1; 4: -3; 5: 1

For the compound `CS(=O)(=O)c1ccc(-c2cnc(N)c(-c3cccc(O)c3)c2)cc1` , what inhibition is on record?
-3

---

# target_or_test_system: Calcium-dependent protein kinase 1 (Plasmodium falciparum (isolate 3D7)) (UniProt P62344)
# Sequence (P62344 whole entry, looked up): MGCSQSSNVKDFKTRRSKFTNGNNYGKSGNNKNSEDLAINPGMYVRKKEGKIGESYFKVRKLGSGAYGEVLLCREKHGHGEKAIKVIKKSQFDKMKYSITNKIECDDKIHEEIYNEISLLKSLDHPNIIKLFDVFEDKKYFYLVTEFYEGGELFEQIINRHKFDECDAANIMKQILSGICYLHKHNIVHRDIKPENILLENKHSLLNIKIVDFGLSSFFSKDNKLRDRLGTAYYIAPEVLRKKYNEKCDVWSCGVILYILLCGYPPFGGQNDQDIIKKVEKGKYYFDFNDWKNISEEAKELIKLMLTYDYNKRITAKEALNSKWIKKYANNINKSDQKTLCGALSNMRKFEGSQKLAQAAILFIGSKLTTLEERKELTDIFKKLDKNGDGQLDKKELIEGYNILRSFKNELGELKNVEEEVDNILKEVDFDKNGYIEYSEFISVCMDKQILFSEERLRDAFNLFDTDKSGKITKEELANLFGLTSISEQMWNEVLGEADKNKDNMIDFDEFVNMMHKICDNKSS
# method_summary: PfCDPK1 kinase inhibitors, biochemical, TCAMS library (AID 1159585);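 note: inhibitors leave more ATP so luminescence rises with inhibition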
# measurement_context: recombinant PfCDPK1, Kinase-Glo ATP depletion luminescence
Results with a measured potency or affinity are listed apart. Activity calls are given as the source filed them. Cut-off not given; nearly all actives show IC50 up to about 0.98 µM.
reported_metric: outcome

Use the examples below as a reference point.
compound: O=C(N[C@@H](Cc1ccccc1)C(=O)NC1CCCCCC1)c1ccc(O)c(-c2ccc(Cl)c(Cl)c2)c1
outcome: inactive
--
compound: O=C(/C=C/c1ccc(Cl)cc1)NCCCCCN1CCN(C(=O)Nc2ccc(Cl)c(C(F)(F)F)c2)CC1
outcome: inactive
--
compound: CS(=O)(=O)c1ccccc1CNC(=O)c1cccc(-c2ccc(-c3nc4ccc(C(F)(F)F)cc4[nH]3)cc2)c1
outcome: inactive
--
compound: CC(=O)Nc1ncc(C(=O)Nc2cccc(-c3ccc(-c4nc5ccc(C(F)(F)F)cc5[nH]4)cc3)c2)s1
outcome: inactive
--
compound: CC(C)CNCc1cccc(-c2cccc(CN(CCCN3CCN(C)CC3)C(=O)/C=C/c3ccccc3)c2)c1
outcome: inactive

Hello, I would appreciate it if you could give outcome for each entry below.
1. Cc1cc(NC(=O)Nc2ccc3sccc3c2)c2ccccc2n1
2. CC1CCN(CC[C@H]2CCCN2S(=O)(=O)c2cccc(NC(=O)c3ccc(-c4ccccc4)cc3)c2)CC1
3. CC(=O)N(Cc1nc(-c2cc(C(F)(F)F)cc(C(F)(F)F)c2)cs1)c1c(C)cccc1C
4. CCCCOc1ccc(/C=C/c2ccc(-c3c(C)[nH]c(C)c(Cl)c3=O)s2)cc1
5. COc1ccc2nccc([C@@H](O)CN3CCC(NC(=O)Cn4nc(-c5ccc(C(F)(F)F)cc5)ccc4=O)CC3)c2c1
6. O=C(Nc1ccc(-c2cccc(-c3nc4ccccc4[nH]3)c2)cc1)Nc1ccc(F)c(F)c1F
7. O=C(NCCCCN1CCC(c2ccc3ccccc3c2)CC1)c1ccc(NC(=O)c2ccc(Cl)cc2)cc1
8. O=S(=O)(Nc1cccc(CCN2CCCCC2CCN2CCCC2)c1)c1ccc2ccccc2c1 (stereo not drawn)

["inactive", "inactive", "inactive", "inactive", "inactive", "inactive", "inactive", "inactive"]

Batch request: outcome for each of the following compounds.
1. Cc1cc2ccccc2c(CON2C(N)=NC(N)=NC2(C)C)c1C
2. CCc1cc(Cc2cnc(N)nc2N)cc(CC)c1OC
3. COC(=O)c1ccc(C(=O)NCCCCN2CCC(c3ccc4c(c3OC)CCCC4)CC2)cc1-c1ccc(C(F)(F)F)cc1
4. FC(F)(F)c1cccc(CNCC2CCN(CC3CCCCC3)CC2)c1
5. CC(C)Cc1cn(-c2nc(C(=N)N)cs2)c2cc(Cl)ccc12

1. inactive
2. inactive
3. inactive
4. inactive
5. inactive

Give measured outcome for every item shown.
1. O=C(/C=C/C=C/c1ccc(Cl)c(Cl)c1)NCCCCCN1CCCC2CCCCC21 (stereo not drawn)
2. COc1nc2c(CCN3CC[C@H](NCc4cc(C#N)c5c(c4)OCCO5)[C@H](O)C3)ccnc2cc1F
3. CCCC1N=C(N)N=C(N)N1c1ccc(Cl)cc1 (stereo not drawn)
4. O=C(Nc1ccc([N+](=O)[O-])cc1O)Nc1ccccc1Oc1ccccc1
5. O=C(Nc1ccc(F)cc1)NC1CCN(c2ccnc3cc(Cl)ccc23)C1 (stereo not drawn)

["inactive", "inactive", "inactive", "inactive", "inactive"]

Could you report outcome for every entry in the following list?
1. O=C(Nc1cccc(-c2ccc(-c3nc4ccc(C(F)(F)F)cc4[nH]3)cc2)c1)c1ccncc1
2. NC1CCN(Cc2ccc(-c3ccc(-c4nc5ccc(F)cc5[nH]4)s3)cc2)C1 (stereo not drawn)

1: inactive; 2: inactive
